biological target: 5-hydroxytryptamine receptor 6 (Homo sapiens, UniProt P50406); test: Displacement of [3H]LSD from 5HT6 receptor expressed in HEK293 cells; type: cell-based; conditions: hek293
Sequence (P50406 whole entry): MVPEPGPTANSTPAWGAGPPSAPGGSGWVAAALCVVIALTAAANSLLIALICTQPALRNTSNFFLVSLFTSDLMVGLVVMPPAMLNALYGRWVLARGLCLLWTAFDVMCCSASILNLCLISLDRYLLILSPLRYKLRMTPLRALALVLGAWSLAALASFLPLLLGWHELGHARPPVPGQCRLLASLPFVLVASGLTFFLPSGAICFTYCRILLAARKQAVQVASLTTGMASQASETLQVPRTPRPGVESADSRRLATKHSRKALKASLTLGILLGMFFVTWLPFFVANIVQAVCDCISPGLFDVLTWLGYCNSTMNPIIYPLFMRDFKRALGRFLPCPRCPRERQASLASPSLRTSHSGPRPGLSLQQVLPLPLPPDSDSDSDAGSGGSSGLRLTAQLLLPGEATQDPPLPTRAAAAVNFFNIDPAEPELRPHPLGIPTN
property: Ki (nM)
Enter your answer as a number in nM; do not include the unit.

What the record says about "CN1CCN(c2ccc([N+](=O)[O-])c(NCCc3ccccc3)c2)CC1" : Ki is 119

====

target: UniProtKB P50406; experiment: Displacement of [3H]LSD from 5HT6 receptor expressed in HEK293 cells at 10 uM; type: cell-based
Doc: threshold 50% (exclusive). Items with Activity beneath it return t; others return f.

Prompt line: # check: Activity < 50% for "CN1CCN(c2ccc(NCc3ccccc3)c([N+](=O)[O-])c2)CC1"
Response line: f

Prompt line: Would you kindly verify if Activity of "CN1CCN(c2ccc([N+](=O)[O-])c(NCCOc3ccc(Cl)cc3)c2)CC1" is strictly less than 50%?
Response line: t

Prompt line: Lab log: compare recorded Activity with 50%; is it strictly lower for "COC(=O)c1ccc(N2CCN(C)CC2)cc1NCc1ccccc1" ?
Response line: f

====

target: 5-hydroxytryptamine receptor 2A (Homo sapiens, UniProt P28223)
Sequence (P28223 whole entry): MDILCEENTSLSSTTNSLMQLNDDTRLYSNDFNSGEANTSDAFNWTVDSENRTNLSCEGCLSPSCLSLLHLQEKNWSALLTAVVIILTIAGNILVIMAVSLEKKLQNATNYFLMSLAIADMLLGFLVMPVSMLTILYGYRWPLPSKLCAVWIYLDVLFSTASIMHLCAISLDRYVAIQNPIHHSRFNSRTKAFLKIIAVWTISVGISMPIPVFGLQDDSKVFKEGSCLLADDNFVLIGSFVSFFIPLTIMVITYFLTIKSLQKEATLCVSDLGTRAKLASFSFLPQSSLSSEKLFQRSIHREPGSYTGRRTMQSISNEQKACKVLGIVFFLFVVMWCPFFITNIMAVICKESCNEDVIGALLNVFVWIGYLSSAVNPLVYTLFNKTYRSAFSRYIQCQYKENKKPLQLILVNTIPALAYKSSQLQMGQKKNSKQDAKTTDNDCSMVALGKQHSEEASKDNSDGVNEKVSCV
property: pKi
Bear in mind: pKi is minus log10 of a mol/L concentration; give just that figure.

The compound "CN1CCN(c2ccc(C#N)c(NCc3ccccc3)c2)CC1" on 5-hydroxytryptamine receptor 2A (Homo sapiens, UniProt P28223): pKi was 7.33

====

target: 5-hydroxytryptamine receptor 6 (Homo sapiens, UniProt P50406); experiment: Displacement of [3H]LSD from 5HT6 receptor expressed in HEK293 cells; format: cell-based
property: pKi
The read-out pKi is expressed as -log10 of concentration in moles per litre.

These solved cases illustrate the format of a correct answer.
>>> measurement("COc1ccc(N2CCN(C)CC2)cc1NCCc1ccccc1")
5.99
>>> measurement("COC(=O)c1cc(N2CCN(C)CC2)ccc1NCc1ccccc1")
5.72
>>> measurement("CN1CCN(c2ccc([N+](=O)[O-])c(Oc3ccccc3)c2)CC1")
7.57

pKi in this record for "O=[N+]([O-])c1ccc(N2CCNCC2)cc1NCc1ccc(Cl)cc1" : 8.10

Recorded result, "CN1CCN(c2ccc(C#N)c(NCc3ccco3)c2)CC1" , pKi: 5.86

The recorded pKi for "O=[N+]([O-])c1ccc(N2CCNCC2)cc1NCc1ccccc1" is 7.55

Record "CN1CCN(c2ccc([N+](=O)[O-])c(-n3nc(-c4ccccc4)c4ccccc4c3=O)c2)CC1" , field pKi: 5.91

So, "NCCNc1ccc([N+](=O)[O-])c(NCc2ccccc2)c1" ? Its pKi was 5.83

Per the record, "CN(C)CCc1c[nH]c2ccc(NS(=O)(=O)c3ccc4c(Cl)cccc4c3)cc12" has pKi of 9.15

pKi measured on "CN1CCN(c2ccc(OCc3ccccc3)c(NCc3ccccc3)c2)CC1" = 6.03

====

molecular target: 5-hydroxytryptamine receptor 6 (Homo sapiens); experiment: Displacement of [3H]LSD from 5HT6 receptor expressed in HEK293 cells at 10 uM; format: cell-based
property: Activity (%)
Please state the figure in %; there is no need to write the unit.

Some solved cases for reference:
>>> measurement("COc1ccc(N2CCN(C)CC2)cc1NCc1ccco1")
53
>>> measurement("COC(=O)c1ccc(N2CCN(C)CC2)cc1NCc1ccco1")
31
>>> measurement("CN1CCN(c2ccc(C(=O)O)c(NCc3ccccc3)c2)CC1")
49
>>> measurement("COc1ccc(CCNc2cc(N3CCNCC3)ccc2[N+](=O)[O-])cc1OC")
59
>>> measurement("CC(Nc1cc(N2CCNCC2)ccc1[N+](=O)[O-])c1ccccc1 (stereo not given)")
13
>>> measurement("COc1cc(N2CCN(C)CC2)ccc1NCc1ccccc1")
49
>>> measurement("CN1CCN(c2ccc([N+](=O)[O-])c(N(C)C(=O)c3ccccc3)c2)CC1")
49
>>> measurement("CN1CCN(c2ccc([N+](=O)[O-])c(-n3ncccc3=O)c2)CC1")
24
>>> measurement("CN1CCN(c2ccc([N+](=O)[O-])c(NCc3ccccc3)c2)CC1")
74
>>> measurement("Cc1cccc(OCCNc2cc(N3CCN(C)CC3)ccc2[N+](=O)[O-])c1")
10

Result for "COc1cccc(OCCNc2cc(N3CCN(C)CC3)ccc2[N+](=O)[O-])c1" , tested on 5-hydroxytryptamine receptor 6 (Homo sapiens), Activity: 22

Activity for 5-hydroxytryptamine receptor 6 (Homo sapiens) with input "Cc1ccc(OCCNc2cc(N3CCN(C)CC3)ccc2[N+](=O)[O-])cc1C" equals 67

Value sought: Activity, system 5-hydroxytryptamine receptor 6 (Homo sapiens), item "CN1CCN(c2ccc([N+](=O)[O-])c(NCCn3cccc3)c2)CC1" . Result: 78

So the reported Activity for "COc1ccc(CCNc2cc(N3CCN(C)CC3)ccc2[N+](=O)[O-])cc1OC" , on 5-hydroxytryptamine receptor 6 (Homo sapiens), turned out to be 24

Summary: "CN1CCN(c2ccc(NCc3ccccc3)c(C(=O)O)c2)CC1" , 5-hydroxytryptamine receptor 6 (Homo sapiens), Activity = 37
